# IC50 (µM), Tau40 assay (ThT) per entry
- Assayed target: His-Tau40P301L Tau (UniProt P10636-8 1-441)
- Sequence (P10636 other isoform, or with tags, fused parts or gaps limits assumed): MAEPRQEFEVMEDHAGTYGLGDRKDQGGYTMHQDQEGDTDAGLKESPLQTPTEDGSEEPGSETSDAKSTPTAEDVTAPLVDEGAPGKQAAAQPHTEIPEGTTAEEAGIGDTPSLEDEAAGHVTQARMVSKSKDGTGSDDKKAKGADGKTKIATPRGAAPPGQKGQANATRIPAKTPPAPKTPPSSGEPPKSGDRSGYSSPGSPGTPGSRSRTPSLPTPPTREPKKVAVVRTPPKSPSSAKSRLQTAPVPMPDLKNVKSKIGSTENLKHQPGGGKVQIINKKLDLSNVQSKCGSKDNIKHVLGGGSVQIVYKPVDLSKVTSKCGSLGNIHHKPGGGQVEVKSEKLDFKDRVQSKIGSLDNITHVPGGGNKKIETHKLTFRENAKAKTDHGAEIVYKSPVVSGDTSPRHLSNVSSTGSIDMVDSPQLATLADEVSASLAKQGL
- Procedure details: cell-based or functional assay
Reply numerically in µM, unit not repeated.

Examples from the recorded data:
Q: Specify IC50 (µM), Tau40 assay (ThT) for RIRIRW and stop.
Result: 10.9

Q: Specify IC50 (µM), Tau40 assay (ThT) for LFYLRLR and stop.
Result: 7.13

Q: Specify IC50 (µM), Tau40 assay (ThT) for RLRIWIW and stop.
Result: 1.21

Q: Specify IC50 (µM), Tau40 assay (ThT) for RIRIWAW and stop.
Result: 8.38

Q: Specify IC50 (µM), Tau40 assay (ThT) for WIRIRYW and stop.
Result: 2.6

Next:
Q: Specify IC50 (µM), Tau40 assay (ThT) for RIALYWW and stop.
Result: 3.54
